Molecular target: HMG-CoA reductase (Rattus norvegicus, UniProt P51639)
Construct: The rat liver microsome sample (100 μl), which was preserved at -80° C; from tissue; host or cells: liver microsomes of Sprague-Dawley rats fed 2% cholestyramine
Sequence (P51639 1-887): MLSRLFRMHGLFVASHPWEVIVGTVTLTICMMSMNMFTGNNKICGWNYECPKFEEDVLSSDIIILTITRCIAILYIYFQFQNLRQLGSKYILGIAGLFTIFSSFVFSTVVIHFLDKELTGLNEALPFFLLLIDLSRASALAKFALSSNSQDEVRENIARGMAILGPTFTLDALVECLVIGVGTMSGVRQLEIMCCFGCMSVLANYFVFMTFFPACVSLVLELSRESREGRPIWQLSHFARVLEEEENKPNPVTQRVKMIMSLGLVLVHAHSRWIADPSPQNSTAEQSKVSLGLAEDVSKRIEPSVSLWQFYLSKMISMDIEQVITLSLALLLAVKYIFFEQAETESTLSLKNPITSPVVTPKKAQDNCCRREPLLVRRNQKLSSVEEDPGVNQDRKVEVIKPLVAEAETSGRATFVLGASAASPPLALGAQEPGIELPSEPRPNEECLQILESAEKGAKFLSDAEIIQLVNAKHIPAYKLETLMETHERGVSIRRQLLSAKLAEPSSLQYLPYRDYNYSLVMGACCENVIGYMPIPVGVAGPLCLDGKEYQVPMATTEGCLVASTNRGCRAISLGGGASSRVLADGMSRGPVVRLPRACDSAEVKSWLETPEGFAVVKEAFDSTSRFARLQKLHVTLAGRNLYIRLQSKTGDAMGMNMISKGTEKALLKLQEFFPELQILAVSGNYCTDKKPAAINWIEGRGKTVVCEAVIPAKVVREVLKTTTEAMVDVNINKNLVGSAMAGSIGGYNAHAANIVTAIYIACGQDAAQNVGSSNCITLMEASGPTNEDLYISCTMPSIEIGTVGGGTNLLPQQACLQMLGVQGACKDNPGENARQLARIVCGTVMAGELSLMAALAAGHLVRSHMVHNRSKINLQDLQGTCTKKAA
Assay: HMG-CoA reductase inhibitory effect (rat liver microsome, [14C]HMG-CoA, TLC/scintillation)
Assay type: biochemical
Settings: comparative activity, with activity of Mevinolin (sodium salt) as reference drug taken as 100, sodium salt of test compound, 37° C., 30 minutes
Text: The HMG-CoA reductase inhibitory effect (1) Preparation of rat liver microsome Sprague-Dawley rats, which were in free access to ordinary dietes containing 2% cholestyramine and water for 2 weeks, were used for the preparation of rat liver microsome. The thus obtained microsome was the purified according to the manner by Juroda et al., Biochem. Biophys. Act, 486, 70 (1977). […]
Metric Name: HMG-CoA reductase inhibitory activities
API doc: respond with a numeric literal and nothing else, no unit.

Examples with answers:
Qu. For CSc1nc(-c2ccc(F)cc2)c(C=CC(O)CC(O)CC(=O)O)c(C(C)C)n1 (centres unmarked) , what is its reported HMG-CoA reductase inhibitory activities?
Ans. 385

Qu. Also CC(C)c1nc(N(C)S(C)(=O)=O)nc(-c2ccc(F)cc2)c1C=CC(O)CC(O)CC(=O)O (single isomer, unassigned) ?
Ans. 442

Qu. Try this compound too: COc1nc(-c2ccc(F)cc2)c(C=CC(O)CC(O)CC(=O)O)c(C(C)C)n1 (centres unmarked)
Ans. 279

Qu. Record: CC(C)c1nc(N(C)NS(C)(=O)=O)nc(-c2ccc(F)cc2)c1C=CC(O)CC(O)CC(=O)O (centres unmarked)
Ans. 260

// moving on: another record for HMG-CoA reductase inhibitory activities
Qu. Tell me the measured HMG-CoA reductase inhibitory activities of CC[C@H](C)C(=O)O[C@H]1C[C@@H](C)C=C2C=C[C@H](C)[C@H](CC[C@@H](O)C[C@@H](O)CC(=O)O)[C@H]21 [Mevinolin Na, Mevinolin, reference compound] , please.
Ans. 100
